Test system: Vero E6 infected with SARS-CoV-2
Test: inhibition of SARS-CoV-2 cytopathic effect; higher = more antiviral protection, active = above 15
Details: 100 nM; 48 h
endpoint: inhibition of SARS-CoV-2 cytopathic effect (%)
Give the value in % but do not write % after it.

A selection of reference data follows.
CCCc1nn(C)c2c(=O)[nH]c(-c3cc(S(=O)(=O)N4CCN(C)CC4)ccc3OCC)nc12 [sildenafil] = 0.47
CC[C@H]1OC(=O)[C@H](C)C(=O)[C@H](C)[C@@H](O[C@@H]2O[C@H](C)C[C@H](N(C)C)[C@H]2O)[C@](C)(OC)C[C@@H](C)C(=O)[C@H](C)[C@H]2N(CCCCn3cnc(-c4cccnc4)c3)C(=O)O[C@]12C [telithromycin] = -1.7
C=CC(=O)N1CCC[C@@H](n2nc(-c3ccc(Oc4ccccc4)cc3)c3c(N)ncnc32)C1 [ibrutinib] = 0.01
CCCCCC(O)CCCC(=O)O (stereo unspecified) = -3.55
N[C@@H]1CCCN(c2c(/C=C3\SC(=O)NC3=O)cccc2-c2ccccc2)C1 = -1.57
Cn1c(Nc2ccc(C(F)(F)F)cc2)nc2cc(Oc3ccnc(-c4ncc(C(F)(F)F)[nH]4)c3)ccc21 = 0.4

Input: Field request: inhibition of SARS-CoV-2 cytopathic effect | item: Cn1nnc(-c2ccc(-c3ccc(N4C[C@H](CO)OC4=O)cc3F)cn2)n1 [tedizolid]
Output: -1.69

====

Tested on: Vero E6 infected with SARS-CoV-2
Experiment: inhibition of SARS-CoV-2 cytopathic effect; higher = more antiviral protection, active = above 15
Settings: 8.33 nM; 48 h
endpoint: inhibition of SARS-CoV-2 cytopathic effect (%)
Could you give me the number in %? Just the number is fine.

Input: Provide value of inhibition of SARS-CoV-2 cytopathic effect for this record tested with Vero E6 infected with SARS-CoV-2: CO/N=C(\C(=O)N[C@@H]1C(=O)N2C(C(=O)O)=C(CSC(=O)c3ccco3)CS[C@H]12)c1csc(N)n1
Output: -0.66

Input: Record NC(=O)c1ccc([N+](=O)[O-])cc1Cl [aklomide] : what is its inhibition of SARS-CoV-2 cytopathic effect with Vero E6 infected with SARS-CoV-2?
Output: 0.27

Input: I'm curious: which inhibition of SARS-CoV-2 cytopathic effect was measured for CC(C)C[C@H](NC(=O)OCc1ccccc1)C(=O)N[C@@H](C[C@@H]1CCNC1=O)C(O)S(=O)(=O)O (some centres undefined) [GC376 sodium] tested on Vero E6 infected with SARS-CoV-2?
Output: -0.81

Input: Provide the documented inhibition of SARS-CoV-2 cytopathic effect with Vero E6 infected with SARS-CoV-2 as the system for Cc1nnc(C(=O)NC(C)(C)c2nc(C(=O)NCc3ccc(F)cc3)c(O)c(=O)n2C)o1 [raltegravir]
Output: -0.27

Input: Missing value: inhibition of SARS-CoV-2 cytopathic effect, Vero E6 infected with SARS-CoV-2, entry COc1cc(C=O)ccc1O [vanillin] . Fill in?
Output: 0.89

Input: Write down the reported inhibition of SARS-CoV-2 cytopathic effect of O=C([O-])CN1CCN(CC(=O)[O-])CCN([C@H](CO)[C@H](O)CO)CCN(CC(=O)[O-])CC1.[Gd+3] (racemic) [gadobutrol] , test system: Vero E6 infected with SARS-CoV-2.
Output: 1.41

Input: Request - read-out inhibition of SARS-CoV-2 cytopathic effect | tested on Vero E6 infected with SARS-CoV-2 | molecule CC(=O)O[C@]1(C(C)=O)CC[C@H]2[C@@H]3C[C@H](C)C4=CC(=O)C=C[C@]4(C)[C@@]3(F)[C@@H](O)C[C@@]21C [fluorometholone-acetate]
Output: 0.86
